B1: Pistol ribozyme (parent)
chain: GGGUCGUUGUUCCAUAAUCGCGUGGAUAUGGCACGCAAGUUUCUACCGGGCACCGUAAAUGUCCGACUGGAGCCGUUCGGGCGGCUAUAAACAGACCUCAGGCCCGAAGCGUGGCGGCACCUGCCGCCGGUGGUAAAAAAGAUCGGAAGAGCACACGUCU

- Variants of: B1
- assay: aptazyme ON/OFF ratio, guanine; higher = stronger switching; co-transcriptional cleavage with and without guanine
Exercise: for every item that follows, state its recorded aptazyme ON/OFF ratio.
Give bare numbers.

Worked cases, answers included:
# variant description, aptazyme ON/OFF ratio
measured = [
    ("U7A G9A U10C U11C C12A", 1.18),
    ("U7G U8G C12A C13A", 1.31),
    ("U7G G9C U11C C13A", 1.42),
]

I need aptazyme ON/OFF ratio for every entry listed below, if you could help.
1. U7C U11C C12A C13G
2. U7C U8C G9U U11C C12G C13G
3. U8C G9A U10C U11A C12G
4. U7G U8G G9U U10C U11G C12A
5. U7A G9U U10A U11A C12U C13G
6. U8C G9A U10G U11C C12A
7. U8C G9C U10G U11C C12G C13G

[1.28, 1.12, 1.37, 1.32, 1.15, 1.23, 1.18]

Reference source: the RNAGym collection of RNA variant scans (doi:10.1021/acssynbio.7b00057)
